# composite z-score annotations
system: Neuregulin-1 EGF-like domain; experiment: small molecules binding NRG1 EGF domain – biochemical, small-molecule microarray, 635 nm fluorescence, primary screen (AID 1081); conditions: higher = more signal;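 note: binding of the protein to compounds printed on small-molecule microarray slides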
Reported metric: composite z-score

molecule=COc1ccc([Si](C)(C)[C@H]2[C@H](CCO)O[C@@]3(C(=O)N(Cc4ccc(NC(=O)[C@H](C)O)cc4)c4ccccc43)[C@@H]2C)cc1 target_or_test_system="Neuregulin-1 EGF-like domain" observed_value=1.19
molecule=COc1ccc(C(=O)Nc2ccc3c(c2)[C@@]2(O[C@H](CCO)[C@@H]([Si](C)(C)c4ccc(OC)cc4)[C@@H]2C)C(=O)N3Cc2ccccc2)cc1 target_or_test_system="Neuregulin-1 EGF-like domain" observed_value=1.07
molecule=O=C(NC1CC1)[C@@H]1c2ccccc2C(=O)N(CC23CC4CC(CC(C4)C2)C3)[C@H]1c1ccc(CO)cc1 target_or_test_system="Neuregulin-1 EGF-like domain" observed_value=1.29
molecule=COC(=O)[C@@]1(Cc2ccc(OC)cc2)[C@H]2c3cc(C(=O)N(C)C)[nH]c3C[C@H]2CN1C(=O)c1ccccc1 target_or_test_system="Neuregulin-1 EGF-like domain" observed_value=0.977
molecule=COC(=O)C[C@H]1O[C@@]2(C[C@@H]1[Si](C)(C)C)C(=O)N(C)c1ccccc12 target_or_test_system="Neuregulin-1 EGF-like domain" observed_value=0.672
molecule=CCCN1C(=O)[C@@]2(c3ccc([N+](=O)[O-])cc3)CC(=O)N(CC34CC5CC(CC(C5)C3)C4)[C@@H]2c2ccc(CO)cc21 target_or_test_system="Neuregulin-1 EGF-like domain" observed_value=-0.58
molecule=CN(C)CCCC[C@@H]1NC(=O)[C@@H]2C[C@H](C(=O)NCCCCCCNC(=O)CS)[C@H](c3ccc(O)cc3)N2C1=O target_or_test_system="Neuregulin-1 EGF-like domain" observed_value=0.975
molecule="CC1CC/C=C\\[C@H]2OC34C=CCN(Cn5nnc6ccccc65)C(=O)[C@H]3N(CCCCCCO)C(=O)[C@@H]4C2C(=O)O1 (some centres undefined)" target_or_test_system="Neuregulin-1 EGF-like domain" observed_value=1.59
molecule=COC(=O)[C@@]1(Cc2ccc(F)cc2)[C@H]2c3cc(C(=O)N4CCCC4)n(Cc4cc(F)cc5c4OCOC5)c3C[C@H]2CN1C(=O)c1ccccc1 target_or_test_system="Neuregulin-1 EGF-like domain" observed_value=0.102
molecule=O=C1C[C@@](C(=O)NC2CC2)(c2ccc([N+](=O)[O-])cc2)[C@@H](c2ccc(CO)cc2)N1C1CCCCC1 target_or_test_system="Neuregulin-1 EGF-like domain" observed_value=1.3
molecule=O=C(NCc1ccc(F)cc1)[C@H]1C[C@H]2C(=O)N3CCC[C@H]3C(=O)N2[C@H]1c1ccc(O)cc1 target_or_test_system="Neuregulin-1 EGF-like domain" observed_value=0.49
molecule="O=C1OCCC=C[C@H]2OC34C=CCN(c5ccc6ccccc6c5)C(=O)[C@H]3N(CCO)C(=O)[C@@H]4C12 (some centres undefined)" target_or_test_system="Neuregulin-1 EGF-like domain" observed_value=0.464
molecule="NC(=O)N1C(=O)C2C(C1=O)C1C=C(CCCO)C2C(C2CC2)N1Cc1sc2ccccc2c1Cl (centres undefined)" target_or_test_system="Neuregulin-1 EGF-like domain" observed_value=1.21
molecule="O=C1NC(=O)C2C1C=CC(C(O)c1ccc([N+](=O)[O-])cc1)N2Nc1ccccn1 (centres undefined)" target_or_test_system="Neuregulin-1 EGF-like domain" observed_value=0.554
molecule=C[N+](C)(C)CCCC[C@@H]1NC(=O)[C@@H]2C[C@H](C(=O)NCc3ccc(F)cc3)[C@H](c3ccc(O)cc3)N2C1=O target_or_test_system="Neuregulin-1 EGF-like domain" observed_value=1.38
molecule=C[C@]1(C(=O)O)c2ccccc2C(=O)N(Cc2cc(F)cc(C(F)(F)F)c2)[C@H]1c1ccc(CO)cc1 target_or_test_system="Neuregulin-1 EGF-like domain" observed_value=0.936
molecule=COC(=O)[C@@]1(Cc2ccc(OC)cc2)[C@H]2c3cc(C(=O)N4CCCC4)n(Cc4c(CO)[nH]cc(C)c4=O)c3C[C@H]2CN1C(=O)c1ccccc1 target_or_test_system="Neuregulin-1 EGF-like domain" observed_value=0.802
molecule="CCCCN1CC=CC23O[C@@H]4/C=C\\CCCOC(=O)C4[C@H]2C(=O)N(C(CO)C(C)C)[C@@H]3C1=O (some centres undefined)" target_or_test_system="Neuregulin-1 EGF-like domain" observed_value=1.47
molecule=C=C(CCCC)/C(=C/C[C@H](OC(C)=O)c1cccc(OCCO)c1)c1cnc2ccccc2c1 target_or_test_system="Neuregulin-1 EGF-like domain" observed_value=0.244
